# targetEntity: hCTPS1 enzyme (Homo sapiens, UniProt P17812)
# Sequence (P17812 1-591): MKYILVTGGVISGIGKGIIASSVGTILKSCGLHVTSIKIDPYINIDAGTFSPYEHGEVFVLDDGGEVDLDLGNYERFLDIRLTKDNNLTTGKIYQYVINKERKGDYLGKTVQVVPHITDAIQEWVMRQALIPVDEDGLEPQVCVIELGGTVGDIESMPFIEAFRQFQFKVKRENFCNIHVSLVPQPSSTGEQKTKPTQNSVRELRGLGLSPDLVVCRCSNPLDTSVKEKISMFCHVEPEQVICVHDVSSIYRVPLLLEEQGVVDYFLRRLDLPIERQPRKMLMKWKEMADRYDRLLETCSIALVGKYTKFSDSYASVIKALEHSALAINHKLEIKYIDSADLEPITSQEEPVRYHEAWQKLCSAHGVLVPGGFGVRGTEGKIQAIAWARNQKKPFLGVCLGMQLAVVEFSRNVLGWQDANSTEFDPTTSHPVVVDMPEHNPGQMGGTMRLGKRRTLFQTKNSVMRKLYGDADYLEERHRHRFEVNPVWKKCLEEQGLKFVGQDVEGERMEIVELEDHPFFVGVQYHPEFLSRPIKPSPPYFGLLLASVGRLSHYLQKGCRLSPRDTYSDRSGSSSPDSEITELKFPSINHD
endpointLabel: IC50

Below, each entry is followed by its recorded IC50 result.
CCOc1cncc(-c2ccc(NC(=O)C3(c4ccnc(NS(=O)(=O)C5CC5)n4)CCC(=CC#N)CC3)nc2)n1 (stereo not shown) [Compound 8]
< 50 nM
CCOc1cncc(-c2ccc(NC(=O)C3(c4ccnc(NS(=O)(=O)C5CC5)n4)CCC(=CCN(C)C)CC3)nc2)n1 (stereo not shown) [Compound 15]
< 100 nM
CCOc1cncc(-c2ccc(NC(=O)C3(c4cncc(NS(=O)(=O)C5CC5)n4)CCC(=C(F)F)CC3)nc2)n1 (stereo not shown) [Compound 68]
< 25 nM

Okay, next one:
# input Fill in the blank: the reported IC50 of CCOc1cncc(-c2ccc(NC(=O)C3(c4ccnc(NS(=O)(=O)C5CC5)n4)CCC(=C(C)CO)CC3)nc2)n1 (stereo not shown) [Compound 47] is ____.
# output < 25 nM
